# System: CCRF-CEM
# assay summary: NCI tumour cell line growth inhibition, 48 h
Activity calls are given as the source filed them. Cut-off read from the data, not from the text of the source: active = GI50 up to about 1.1 µM and inactive = higher. Square brackets hold non-standard residues; d marks the D form. Peptide text beside a SMILES is read from it. 2Nal = N[CH](Cc1ccc2ccccc2c1)C(=O)O
Entry note: the call must match one of active, inactive

Illustrative cases are given below, each with its answer.
Cc1cc(=O)oc2cc(OC(=O)Nc3ccc(Cl)c(Cl)c3)ccc12 ... inactive
C[C@H]1C[C@H]2[C@@H]3CCC4=CC(=O)C=C[C@]4(C)C3=CC[C@]2(C)[C@@]1(O)C(=O)CO ... inactive
CC(=O)OCC1OC(N2C(=O)C(=O)c3ccccc32)C(OC(C)=O)C(OC(C)=O)C1OC(C)=O (stereo not drawn) ... inactive
CC(C)C(NC(=O)C(CCCCN)NC(=O)C(Cc1c[nH]c2ccccc12)NC(=O)C(Cc1ccc(O)cc1)NC(=O)C(CS)NC(=O)C(N)Cc1ccc2ccccc2c1)C(=O)NC(CS)C(=O)NC(C(N)=O)C(C)O (stereo not drawn) (H-[2Nal]CYWKVCT-NH2; configuration not given here) ... inactive

Query: Call for entry COc1ccc(CCCNC(=O)c2cc(OC)c(OC)cc2CCO)cc1OC :
Result: inactive

Query: Per the assay record, what outcome was assigned to COC(=O)[C@@H]1COC(C(C)(C)C)N1C(=O)C(c1ccccc1)c1ccccc1 (stereo partly drawn) ?
Result: inactive

Query: Per the records of this test, what outcome belongs to Cc1ccccc1NC(=O)/C=N/O ?
Result: active

Query: Name the outcome recorded for CCN(CC)CC/N=C\c1c(O)c(O)c(C(C)C)c2cc(C)c(-c3c(C)cc4c(C(C)C)c(O)c(O)c(/C=N/CCN(CC)CC)c4c3O)c(O)c12 in the assay.
Result: active

Query: Which outcome was entered for the compound CC12CP(=O)(c3ccccc3)CC1C2(Cl)Cl (stereo not drawn) in this test?
Result: inactive

Query: Which outcome was entered for the compound O=C(O)C1(Cc2ccc3c(c2)CCC3)Cc2ccccc2C1 in this test?
Result: inactive

Where these numbers come from: ChEMBL document CHEMBL1201862
